- Tested on: DIPGX29 (H3.3 K27M diffuse intrinsic pontine glioma line)
- Experiment description: area under dose-response curve of % growth inhibition (log2 RLU vs DMSO / staurosporine), 1e-11 to 1e-4 M (% x log10 M); higher = more growth inhibition
Would you mind sorting the entries by area under dose-response curve according to these classes? b0: < 30; b1: ≥ 30 and < 70; b2: ≥ 70

// query For [O-][n+]1ccccc1[S-].[O-][n+]1ccccc1[S-].[Zn+2] [PYRITHIONE ZINC] , which area under dose-response curve bin applies?
// result b2

// query For COc1ccccc1-c1cc(Nc2cccc(CS(N)(=O)=O)c2)ncn1 , which area under dose-response curve bin applies?
// result b1

// query For N[C@@H](Cc1cc(I)c(Oc2ccc(O)c(I)c2)c(I)c1)C(=O)O [LIOTHYRONINE] , which area under dose-response curve bin applies?
// result b1

// query For C#Cc1cccc(Nc2ncnc3cc(OCCOC)c(OCCOC)cc23)c1 [ERLOTINIB] , which area under dose-response curve bin applies?
// result b0

// query For COc1ccc(CCc2nc3cc(-c4c(C)noc4C)ccc3n2C[C@H](C)N2CCOCC2)cc1Cl [SGC-CBP30] , which area under dose-response curve bin applies?
// result b0

* * *

- System: SUDIPGXVII (diffuse intrinsic pontine glioma line)
- Experiment description: maximal growth inhibition (yFin) relative to DMSO / staurosporine; higher = more efficacious
Recorded metric: maximal growth inhibition (%)
Expressed in %, but write only the number.

Compound: CC(=O)c1cc([N+](=O)[O-])c(Sc2ccc(F)cc2F)s1
Tested system: SUDIPGXVII
Display unit: %
maximal growth inhibition: 74.3
//
Compound: OC1(c2ccc(Cl)c(C(F)(F)F)c2)CCN(CCCC(c2ccc(F)cc2)c2ccc(F)cc2)CC1
Tested system: SUDIPGXVII
Display unit: %
maximal growth inhibition: 95.6
//
Compound: CN1[C@@H]2CC[C@H]1C[C@@H](OC(=O)c1cc(Cl)cc(Cl)c1)C2
Tested system: SUDIPGXVII
Display unit: %
maximal growth inhibition: 44.2
//
Compound: CC(C)c1cc(-c2n[nH]c(=O)n2-c2ccc3c(ccn3C)c2)c(O)cc1O
Tested system: SUDIPGXVII
Display unit: %
maximal growth inhibition: 61.6
//
Compound: CC[C@@]1(O)C(=O)OCc2c1cc1n(c2=O)Cc2cc3c(CN(C)C)c(O)ccc3nc2-1
Tested system: SUDIPGXVII
Display unit: %
maximal growth inhibition: 39
//
Compound: COc1ncc(-c2ccc3nccc(-c4ccnnc4)c3c2)cc1NS(=O)(=O)c1ccc(F)cc1F
Tested system: SUDIPGXVII
Display unit: %
maximal growth inhibition: 111
//
Compound: O=C1NC(=O)C(c2cnc3ccccn23)=C1c1cn2c3c(cc(F)cc13)CN(C(=O)N1CCCCC1)CC2
Tested system: SUDIPGXVII
Display unit: %
maximal growth inhibition: 22.3
//
Compound: NC1CCC(Nc2cc(-c3cccc(NCc4cccc(F)c4)n3)c(Cl)cn2)CC1 (stereo not given)
Tested system: SUDIPGXVII
Display unit: %
maximal growth inhibition: 87
//
Compound: Cc1noc2c1-c1ccccc1C(c1ccc(Cl)cc1)=N[C@H]2CC(N)=O
Tested system: SUDIPGXVII
Display unit: %
maximal growth inhibition: 63.3
//
Compound: CC(C)C[C@H](NC(=O)[C@H](CCc1ccccc1)NC(=O)CN1CCOCC1)C(=O)N[C@@H](Cc1ccccc1)C(=O)N[C@@H](CC(C)C)C(=O)[C@@]1(C)CO1
Tested system: SUDIPGXVII
Display unit: %
maximal growth inhibition: 105

// query Looking for the measured maximal growth inhibition of CC(C)C[C@H](NC(=O)CNC(=O)c1cc(Cl)ccc1Cl)B(O)O , can you help?
// result 81

// query Looking for the measured maximal growth inhibition of O=C(c1ccc(Nc2nccc(-c3cc4ccccc4s3)n2)cc1)N1CCC(N2CCCC2)CC1 , can you help?
// result 118

// query Looking for the measured maximal growth inhibition of Nc1ccccc1NC(=O)c1ccc(CNc2nccc(-c3cccnc3)n2)cc1 , can you help?
// result 93

// query Looking for the measured maximal growth inhibition of CN(C)C/C=C/C(=O)Nc1cc2c(Nc3ccc(F)c(Cl)c3)ncnc2cc1O[C@H]1CCOC1 , can you help?
// result 109

// query Looking for the measured maximal growth inhibition of CN1CCCN(C(=O)c2cccc(-c3ccc(/C=C4/C(=O)Nc5ccc(Cl)cc54)o3)c2)CC1 , can you help?
// result 110

// query Looking for the measured maximal growth inhibition of C[C@@]12OC(=O)[C@]1([C@@H](O)[C@@H]1C=CCCC1)NC(=O)[C@@H]2CCCl , can you help?
// result 40.4

// query Looking for the measured maximal growth inhibition of O=C(Nc1ccc(Nc2nccc(Nc3cc(C4CCCC4)[nH]n3)n2)cc1)Nc1cccc(C(F)(F)F)c1 , can you help?
// result 100

// query Looking for the measured maximal growth inhibition of CCCCc1oc2ccc(NS(C)(=O)=O)cc2c1C(=O)c1ccc(OCCCN(CCCC)CCCC)cc1 , can you help?
// result 122

* * *

- Tested on: iAstro (astrocyte control)
- Experiment description: maximal growth inhibition (yFin) relative to DMSO / staurosporine; higher = more efficacious
Recorded metric: maximal growth inhibition (%)
Expressed in %, but write only the number.

Molecule: O=C1NC(=O)C(c2cnc3ccccn23)=C1c1cn2c3c(cc(F)cc13)CN(C(=O)N1CCCCC1)CC2
Display unit: %
Recorded number: 45.8
//
Molecule: COc1ccc(-c2nc(N3CCOCC3)c3sc(CN(C)c4ncc(C(=O)NO)cn4)cc3n2)cn1
Display unit: %
Recorded number: 73.6
//
Molecule: Cc1c(C2CCN(CCc3ccccc3)CC2)noc1-c1ccc(Cl)cc1
Display unit: %
Recorded number: 43.2
//
Molecule: Nc1ccccc1NC(=O)c1ccc(CNc2nccc(-c3cccnc3)n2)cc1
Display unit: %
Recorded number: 38.2
//
Molecule: Cc1noc2c1-c1ccccc1C(c1ccc(Cl)cc1)=N[C@H]2CC(N)=O
Display unit: %
Recorded number: 39
//
Molecule: Fc1ccc(-c2c3cccc(C(F)(F)F)c3nn2Cc2ccc(F)cc2Cl)cc1
Display unit: %
Recorded number: 33.9
//
Molecule: NC1CCC(Nc2cc(-c3cccc(NCc4cccc(F)c4)n3)c(Cl)cn2)CC1 (centres undefined)
Display unit: %
Recorded number: 85.7
//
Molecule: CC(C)c1c2cc(-c3ccnc(NC4CCC(NC5CCOCC5)CC4)n3)ccc2nn1C (centres undefined)
Display unit: %
Recorded number: 26.6

Consider the additional molecule presented here.
// query // map CN1[C@@H]2CC[C@H]1C[C@@H](OC(=O)c1cc(Cl)cc(Cl)c1)C2 to recorded maximal growth inhibition (system: iAstro)
// result 36.1

* * *

- Test system: SUDIPGIV (diffuse intrinsic pontine glioma line)
- Experiment description: area under dose-response curve of % growth inhibition (log2 RLU vs DMSO / staurosporine), 1e-11 to 1e-4 M (% x log10 M); higher = more growth inhibition
Measured area under dose-response curve values are reported for all entries that follow.
Give the value as a plain number.

# annotated cases, reported area under dose-response curve shown
Compound: Fc1ccc(-c2c3cccc(C(F)(F)F)c3nn2Cc2ccc(F)cc2Cl)cc1
area under dose-response curve: 67.1
//
Compound: CC(C)(C)OC(=O)Nc1ccc(-c2cc(C(=O)NCCCCCCC(=O)NO)no2)cc1 [BML-281]
area under dose-response curve: 104

// query // map OC1(c2ccc(Cl)c(C(F)(F)F)c2)CCN(CCCC(c2ccc(F)cc2)c2ccc(F)cc2)CC1 [PENFLURIDOL] to recorded area under dose-response curve (system: SUDIPGIV)
// result 152

// query // map Fc1ccc(N2CCN(CCC3OCCc4ccccc43)CC2)cc1 (configuration not stated) to recorded area under dose-response curve (system: SUDIPGIV)
// result 15.7

// query // map COc1cccc2c1C(=O)c1c(O)c3c(c(O)c1C2=O)C[C@@](O)(C(=O)CO)C[C@@H]3O[C@H]1C[C@H](N)[C@H](O)[C@H](C)O1 [DOXORUBICIN] to recorded area under dose-response curve (system: SUDIPGIV)
// result 255

// query // map CC12CC3CC(C)(C1)CC(N)(C3)C2 [MEMANTINE] to recorded area under dose-response curve (system: SUDIPGIV)
// result 6.14

// query // map Cc1noc2c1-c1ccccc1C(c1ccc(Cl)cc1)=N[C@H]2CC(N)=O [CPI-0610] to recorded area under dose-response curve (system: SUDIPGIV)
// result 114

// query // map Nc1ccccc1NC(=O)c1ccc(CNc2nccc(-c3cccnc3)n2)cc1 [MOCETINOSTAT] to recorded area under dose-response curve (system: SUDIPGIV)
// result 175

// query // map CCN(CC)CCNC(=O)c1c(C)[nH]c(/C=C2\C(=O)Nc3ccc(F)cc32)c1C [SUNITINIB] to recorded area under dose-response curve (system: SUDIPGIV)
// result 99.2

// query // map CN1CCCN(C(=O)c2cccc(-c3ccc(/C=C4/C(=O)Nc5ccc(Cl)cc54)o3)c2)CC1 [CX-6258] to recorded area under dose-response curve (system: SUDIPGIV)
// result 165
